Measured Ki accompanies every entry in the list below.
# study.system: Drosophila octopamine receptor (Drosophila melanogaster, UniProt P22270)
# Construct: membranes or whole cells
# Sequence (P22270 27-601): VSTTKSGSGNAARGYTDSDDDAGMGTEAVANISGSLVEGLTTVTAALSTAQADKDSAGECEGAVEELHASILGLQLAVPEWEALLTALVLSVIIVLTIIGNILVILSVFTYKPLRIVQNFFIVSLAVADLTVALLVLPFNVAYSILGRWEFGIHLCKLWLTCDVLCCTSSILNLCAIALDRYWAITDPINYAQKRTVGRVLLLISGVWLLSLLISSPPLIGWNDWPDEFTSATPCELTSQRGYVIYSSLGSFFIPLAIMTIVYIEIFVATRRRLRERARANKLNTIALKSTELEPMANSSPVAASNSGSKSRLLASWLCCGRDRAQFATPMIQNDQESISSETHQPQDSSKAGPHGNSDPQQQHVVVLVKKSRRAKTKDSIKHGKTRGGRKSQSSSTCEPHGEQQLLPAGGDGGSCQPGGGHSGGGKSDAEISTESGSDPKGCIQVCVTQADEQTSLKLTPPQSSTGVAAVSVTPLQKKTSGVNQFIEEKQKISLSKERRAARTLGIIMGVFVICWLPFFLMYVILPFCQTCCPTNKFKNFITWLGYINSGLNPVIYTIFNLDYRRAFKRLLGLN
# test.details: [3H]yohimbine competition displacement binding to membranes of transfected CHO-K1 cells
# measurement.setup: read-out: Ki
reported.metric: Ki

CC(C)NCC(O)c1ccc(O)c(O)c1 (stereo not drawn) [Isoproterenol(-), Isoproterenol] ... > 1000 µM
NCCc1ccc(O)c(O)c1 ... > 1000 µM
NCC(O)c1ccc(O)cc1 (racemic) [Octopamine(±), Octopamine] ... 29 µM

----------
In this section, each of the molecules is paired with its reported Ki.
# study.system: Drosophila octopamine receptor (Drosophila melanogaster, UniProt P22270)
# Construct: membranes or whole cells
# test.details: [3H]yohimbine competition displacement binding to membranes of transfected CHO-K1 cells
# measurement.setup: displacement of 6 nM [3H]yohimbine, 37° C., 20 min; average ± SD, three times in triplicate; read-out: K1
reported.metric: Ki

NCCc1ccc(O)c(O)c1 ... > 1000 µM
CC(C)NCC(O)c1ccc(O)c(O)c1 (stereo not drawn) [Isoproterenol(-), Isoproterenol] ... > 1000 µM
